- Tested on: THRa:RXRa (NR concentration 90 nM, RXRa partner concentration 90 nM)
- experimental_protocol: PBM binding z-score (relative to random genomic background probes); higher = stronger binding; sequences stand for … in GC…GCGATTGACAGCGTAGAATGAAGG
Output schema: class label derived from PBM binding z-score. Mapping: band A = under 2, band B = from 2 up to 3, band C = 3 and over

Use these answered entries as a reference point.
[
  {
    "chain": "TCATATAGGTAAAAGCTAGGTGAAAGTCCGATCT",
    "discrete_label": "band A"
  },
  {
    "chain": "TCTTGTAGATCAAGCAGGTTAAGAGAGCCTGAGT",
    "discrete_label": "band A"
  },
  {
    "chain": "ATCTGTAGGTTAGCTGGGGTCATTCAGACTAGGC",
    "discrete_label": "band C"
  }
]

Q: Assign a bin to `CTCGAAAGGTCGTGCTCAGGTGAGAATACCAAAC`
A: band C

Q: Each sequence maps to one class by PBM binding z-score. Which class for `ACTAGTTGGTCAGGTGAGGTCACACACAATTCGG` ?
A: band C
